assay: soluble fraction after stress (log2 fold change); higher = more stays soluble; pooled small domains, quantitative proteomics; details: stress: 50 degC
measured_quantity: soluble fraction (log2)

INSERT INTO assay_data (primary_sequence, recorded_number) VALUES
  ('HMTSPVEDLLDKAIQLYREENFEEAIAKWEEVLALDPSKLEAKFNIEIAQDRIKEKQIQEDLKSS', 0.0629),
  ('HMAEGPYSGKKVEKYPGGMEKRETMYSEGKLTRVTEFHQSGQKKMEVKVDANGQWKRLYWDNNGNPT', 0.07),
  ('HMEPIAFDNMHNRGIKGTNDWTQYEITLPFSAEAKKIFVAGLLVGKGKAWFDKFEVFLDGKNITDVAQI', 0.124),
  ('HMEAVGLTPRQGDVLALLLQGKPNKLIARDLNLSVETVKDHVAAVLRALGVSTRTQAVLAVSQMQQQAAQ', -0.248);

----------
assay: soluble fraction after stress (log2 fold change); higher = more stays soluble; pooled small domains, quantitative proteomics; settings: stress: 50 degC
measured_quantity: soluble fraction (log2)

INSERT INTO results (primary_sequence, measured_quantity, recorded_number) VALUES
  ('HMEETLRALAKKISEKVLKSGRSTTLEPMNPYERRIIHSAVSEIEGVSSKSVGEEPYRKVVISSDNP', 'soluble fraction (log2)', 0.0364),
  ('HMKIELSDNEKIIYDLLSSQHVLLSEIKDKAGLSNKAWDKSTKSLRKLGLIAVEKKDDDIYISKL', 'soluble fraction (log2)', -0.0233),
  ('HMYQFFVDPGQIQGKRVTITGSDVNHIKNVLRMRIGEEIAVSNGKDGLEYRFGIDEILEDEVIGTLRFVKE', 'soluble fraction (log2)', -0.968),
  ('HMAAENAVGARVKALREAMDLSLRDLSERSGVSPTMLSQVERGSTSPTLAVAEKIAAGLDLSLSQLLRL', 'soluble fraction (log2)', -0.0179),
  ('HMSQDEVVADMKADLGPDADNIIRSNIQWADGLVRKGILTESEREELDVMGGTPEAQRILVKLRTMQG', 'soluble fraction (log2)', 0.0777),
  ('HMIEFYTMQDMFYFKLTGDNTSRERREALGKILGIGYGNATQMVSRLNNYGISKEEFSKAIEEIEKQLEA', 'soluble fraction (log2)', -2.8),
  ('HMSHGYVEMQAKDDQVLLAALKNHPWFEKVSIDEETGLTKAILTQPIEAEELNSMLFEKGIVLSHLVKRK', 'soluble fraction (log2)', 0.234),
  ('HMQEEELYPRLEEVINQHRGKGEDLIMVLHKAQNLFGYLPRRAQEMVAEGLNVSLNEVYGVITFYNFFST', 'soluble fraction (log2)', -0.0621),
  ('HMSAEGPALADWVVRDAHSIGAKITNSVAQLLIDRVGHNQQLLHNELQKLALVQTDISAELVKTMSHY', 'soluble fraction (log2)', 0.0302),
  ('HMVMSTDAELILEYLAKHQGEMEITDKSSPELIMDTFNMSKGAFKRALGSLYKSKTVVIESTKVLLNT', 'soluble fraction (log2)', -1.44),
  ('HMSTISPNAFNFLQQNLNKFSDDAEGKMIKDILSKTTYDEYVKNEKSKTDFNSLLRRQTTTGDDNLNRYIN', 'soluble fraction (log2)', 0.0247),
  ('HMIDHKVIRSFRQKRNMTLQELAQKANLSVSYLSEIELGKKQPSLETLDKLSKALNISLEGL', 'soluble fraction (log2)', -0.116),
  ('HMESKKKTYTVKSGDTLVSILKREGVPQELIFKDYLGLFLELNPQISDINKLRVGQEIVLPVPG', 'soluble fraction (log2)', 0.0119),
  ('HMYSYSGSVINTYKVPVSVVLKDANGSAIASWDLPVDQSLGISAKDIATSSGTIEITGDGVNETKTVTFTK', 'soluble fraction (log2)', -0.0188),
  ('HMFPQVEVQLIYSYKSDRILNKMLKEFNVVILNQVFKDDILTSFHMNYSLVNQLITKIKSYPDISYKIIN', 'soluble fraction (log2)', -1.5),
  ('HMFNDGEIAIYTDPRGDAGETQIWKRGKGYYGQNDSFDFEAKDKKELEMKLKRWGYVLIAGSIDE', 'soluble fraction (log2)', -0.291),
  ('HMEFYYSDLVGMIVYDTGGNELGKVQAVLNHGAGDLLEIHGVNLKTSILIPFTKEAVPTVDIAARRIVTDP', 'soluble fraction (log2)', 0.0733),
  ('HMDVRLAKVYMLPANPYLRFIEFDDGTHGKFRAKPGKFGLGSVVKVKREDGDMYTLEGNYDGKDRL', 'soluble fraction (log2)', -0.555),
  ('HMDIASNQIQGIKDSVGGDENYSKMVAWALESLPAEEVKAFNDLTETANAPAIKMAVQGLYSQYNNAM', 'soluble fraction (log2)', 0.264),
  ('HMPAEEVPLYKAVVVTTPPNRLRVRFSPAGDFKRWLQSGEEVDVYQELGDWRRIEPNGWSSAEWLQRVG', 'soluble fraction (log2)', -0.157),
  ('HMDTYDSIDSILEERHLSRRKLAQAIGLPPSTFQSMMSRKSGMTLEVLMKIVSYLQVSPDAFW', 'soluble fraction (log2)', -2.12),
  ('HMPVQPMDPSIEHISALTGKQFQAFPGQDHRAHMTAHLNFMSTNIVRNNPAVMGAIQKNILEHISLMAQEQ', 'soluble fraction (log2)', 0.153),
  ('HMESSKLQASIINYLERRPTQKFTAEELFKGLSLEKASVFNELVKELTSLERSHKVEITADDKFKIARPQ', 'soluble fraction (log2)', -0.126),
  ('HMKGIVFTEFLDLVEERFGLEMVDAIISQSKLESKGVYTSIGTYSFSELLQLLQNLKIQTGISIDNLLLI', 'soluble fraction (log2)', -0.88),
  ('HMQESTPGEGYKWREDVLLRVMSQNGIDESLRDEFVRHAVNYDIDDNMYLKKAEIESAAEAWVLENS', 'soluble fraction (log2)', -0.0581),
  ('HMEVKSGFVHLTGAVKSPGVYPISIGMRLFEVIALAGGFTAKADRESVNLARTVTDGEQIIVSGSG', 'soluble fraction (log2)', -1.7),
  ('HMSGIGTTIKMLRENKNISQEELGNVLGVSDKTISSWEINRTEPKMGIVQLLADYFGVSTDYLIKG', 'soluble fraction (log2)', -0.146),
  ('HMVDTSDLPAIVEKVFADNPEQVNDILNGKDRVKGFLVGQIMKATRGQAPPDEVNKLIDATLEKMKAA', 'soluble fraction (log2)', 0.0819),
  ('HMETSVDEVYKKIQAYIEAEDKHKPLSDQKLAEQLQSDGLKVSRRTVAKYREKLNIASSSKRKR', 'soluble fraction (log2)', 0.358),
  ('HMKVDRLVSMILILLEQQRVGAQELADRFEVSVRTIYRDMEAINQAGIPVRSTSGVGGGFEIM', 'soluble fraction (log2)', -0.34),
  ('HMSDDAVVRMRVPEDALGLSLRETDFRQRFGVYVLAIETRDGKLLAPPDPQRPLGKDDVLVVIQKR', 'soluble fraction (log2)', -0.138),
  ('HMGDPVRVDKFLHDMNVGTRSQIRKLIKEKAVFVNDVVAKSGRVKVDPVVDQVRLGEQVITYQ', 'soluble fraction (log2)', -0.115),
  ('HMPLLSPRQLDVLSLAAGGLSDAQIAGRLVLSESTVRVHFHHIIEKLGVTDRAGAIAWYEQSRS', 'soluble fraction (log2)', -1.03);

Hello, the source for this data is the domain aggregation screens of Martell et al. (2025), in case you need it.
